Measured Kd accompanies every entry in the list below.
# TEST METHOD NOTES: Binding affinity to protein phosphatase, calcineurin (CN) was determined
READOUT LABEL: Kd (nM)

- MOLECULE: "C=CC[C@@H]1/C=C(\\C)C[C@H](C)C[C@H](OC)[C@@H](O)[C@@H](OC)C[C@@H](C)CC(=O)C(=O)N2CCCC[C@H]2C(=O)O[C@H](/C(C)=C/[C@@H]2CC[C@@H](O)[C@H](OC)C2)[C@H](C)[C@@H](O)CC1=O"
  READOUT LABEL: "Kd"
  READING QUALIFIER: "="
  OBSERVED MEASUREMENT: 350
- MOLECULE: "C=CC[C@@H]1/C=C(\\C)C[C@H](C)C[C@H](OC)[C@H]2O[C@@](O)(C(=O)C(=O)N3CCCC[C@H]3C(=O)O[C@H](/C(C)=C/[C@@H]3CC[C@@H](O)[C@H](OC)C3)[C@H](C)[C@@H](O)CC1=O)[C@H](C)C[C@@H]2OC"
  READOUT LABEL: "Kd"
  READING QUALIFIER: "="
  OBSERVED MEASUREMENT: 20
- MOLECULE: "C=CC[C@@H]1/C=C(\\C)C[C@H](C)C[C@H](OC)[C@@H](O)[C@@H](OC)C[C@@H](C)c2ncoc2C(=O)N2CCCC[C@H]2C(=O)O[C@H](/C(C)=C/[C@@H]2CC[C@@H](O)[C@H](OC)C2)[C@H](C)C(O)CC1=O (stereo partly specified)"
  READOUT LABEL: "Kd"
  READING QUALIFIER: "="
  OBSERVED MEASUREMENT: 300
- MOLECULE: "CCCC1C(=O)CC[C@@H](C)[C@@H](CCc2cccnc2)OC(=O)[C@@H]2CCCN(C2)C(=O)C(O)CC[S+]([O-])CC[C@@H](OC)C[C@@H](C)CC(=O)N1C (stereo partly specified)"
  READOUT LABEL: "Kd"
  READING QUALIFIER: ">"
  OBSERVED MEASUREMENT: 1000
- MOLECULE: "CCC(C)C1C(=O)CC[C@@H](C)[C@@H](CCc2cccnc2)OC(=O)[C@@H]2CCCN(C2)C(=O)C(=O)CCSCC[C@@H](OC)C[C@@H](C)CC(=O)N1C (stereo partly specified)"
  READOUT LABEL: "Kd"
  READING QUALIFIER: ">"
  OBSERVED MEASUREMENT: 1000
- MOLECULE: "CCCC1C(=O)CC[C@@H](C)[C@@H](CCc2cccnc2)OC(=O)[C@@H]2CCCN(C2)C(=O)C(=O)CSCC[C@@H](OC)C[C@@H](C)CC(=O)N1C (stereo partly specified)"
  READOUT LABEL: "Kd"
  READING QUALIFIER: ">"
  OBSERVED MEASUREMENT: 1000

The measurements presented in this section are drawn from BindingDB's records for doi:10.1016/0960-894X(95)00404-H.
